- Assayed System: Uracil reductase (dihydropyrimidine dehydrogenase, EC 1.3.1.2) (Bos taurus, UniProt Q28007)
- Construct: purified from bovine liver; from tissue; host or cells: bovine liver
- Sequence (Q28007 with tags, fused parts or gaps): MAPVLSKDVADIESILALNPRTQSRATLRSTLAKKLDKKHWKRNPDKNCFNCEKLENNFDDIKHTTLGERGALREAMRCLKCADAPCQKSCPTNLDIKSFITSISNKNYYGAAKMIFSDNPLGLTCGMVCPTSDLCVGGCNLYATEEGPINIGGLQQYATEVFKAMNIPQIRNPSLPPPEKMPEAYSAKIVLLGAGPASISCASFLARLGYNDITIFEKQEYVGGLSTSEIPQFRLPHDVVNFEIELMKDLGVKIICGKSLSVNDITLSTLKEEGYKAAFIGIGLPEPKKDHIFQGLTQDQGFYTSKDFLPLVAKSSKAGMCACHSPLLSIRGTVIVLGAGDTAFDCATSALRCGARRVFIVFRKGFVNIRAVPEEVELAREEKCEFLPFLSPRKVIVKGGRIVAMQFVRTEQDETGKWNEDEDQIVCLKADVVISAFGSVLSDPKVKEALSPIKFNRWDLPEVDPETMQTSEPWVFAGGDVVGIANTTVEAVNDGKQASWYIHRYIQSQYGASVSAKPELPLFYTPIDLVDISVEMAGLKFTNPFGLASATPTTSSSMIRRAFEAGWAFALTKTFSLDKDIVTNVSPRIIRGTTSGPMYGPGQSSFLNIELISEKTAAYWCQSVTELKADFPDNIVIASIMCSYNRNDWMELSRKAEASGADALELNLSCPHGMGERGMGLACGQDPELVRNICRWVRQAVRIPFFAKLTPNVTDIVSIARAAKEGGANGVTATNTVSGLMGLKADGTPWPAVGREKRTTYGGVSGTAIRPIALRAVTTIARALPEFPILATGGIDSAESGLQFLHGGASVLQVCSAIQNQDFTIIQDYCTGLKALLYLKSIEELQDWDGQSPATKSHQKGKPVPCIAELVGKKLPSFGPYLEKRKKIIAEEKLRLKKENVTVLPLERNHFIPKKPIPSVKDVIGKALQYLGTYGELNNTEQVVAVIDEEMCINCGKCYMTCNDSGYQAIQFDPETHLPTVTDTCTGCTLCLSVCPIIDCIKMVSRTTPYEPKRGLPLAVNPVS
- Assay Info: Determination of uracil reductase inactivation
- Assay type: biochemical, bovine
- Setup Conditions: 0.5 h; 100 micromolar inactivator, 1 micromolar enzyme, 5 mM dithiothreitol, 37° for 30 minutes, pH 8.0; read-out: % Inactivation

Query Smiles	Unit Abbreviation	inhibition at 100 µM
O=c1[nH]cc(I)c(=O)[nH]1	%	100
C=Cc1c[nH]c(=O)[nH]c1=O	%	86
C#Cc1c[nH]c(=O)[nH]c1=O	%	100
O=c1[nH]cc(C(F)(F)F)c(=O)[nH]1	%	75
N#Cc1c[nH]c(=O)[nH]c1=O	%	100
O=c1[nH]cc(C#CBr)c(=O)[nH]1	%	100
CCCCC#Cc1c[nH]c(=O)[nH]c1=O	%	90
CC#Cc1c[nH]c(=O)[nH]c1=O	%	100
C=C(Cl)c1c[nH]c(=O)[nH]c1=O	%	100
